- ASSAY_TEXT: photoluminescence quantum yield (fraction); solvent given as SMILES
- EXPERIMENTAL_SETUP: in c1cc(-c2cccc(-n3c4ccccc4c4ccccc43)c2)cc(-n2c3ccccc3c3ccccc32)c1
Short version: photoluminescence quantum yield at least 0.8 is Fulfilled, less is Not fulfilled.

SMILES_DATA: c1ccc(-c2nc(-c3ccccc3)nc(-c3ccc(-c4ccc5c(c4)[Si](c4ccccc4)(c4ccccc4)c4cc(-c6ccc(-c7nc(-c8ccccc8)nc(-c8ccccc8)n7)cc6)ccc4N5c4ccccc4)cc3)n2)cc1
LABEL: Fulfilled

SMILES_DATA: N#Cc1cc(-c2ccc(N3c4ccccc4Oc4ccccc43)cc2)c(-c2ccc(N3c4ccccc4Oc4ccccc43)cc2)cc1C#N
LABEL: Not fulfilled

SMILES_DATA: Cc1cc(-n2c3ccccc3c3ccccc32)c(-n2c3ccccc3c3ccccc32)cc1C#N
LABEL: Fulfilled

SMILES_DATA: O=c1c2ccccc2n2c3ccc(-c4ccccc4)cc3c(=O)c3cccc1c32
LABEL: Not fulfilled

SMILES_DATA: O=C(c1ccncc1)c1ccc(-n2c3ccccc3c3ccccc32)cc1
LABEL: Not fulfilled

SMILES_DATA: CC1(C)c2ccccc2N(c2ccc3c(c2)c2ccccc2c2nc4ccccc4nc32)c2ccccc21
LABEL: Not fulfilled

Hey, just so you know, these numbers are from the Deep4Chem optical property database.
